System: Downy Brome
Measurement Description: Post-emergence herbicide test
Assay type: in vivo
Measurement Parameters: Bromus tectorum, 1.12 kg/ha, read-out: % plant inhibition (Dobr)
Assay Readout: inhibition at 1120 g/ha (%)
Express your answer in %, writing the number without its unit.

Please review the following examples before continuing.
> print(dat)
                                   compound  target.of.assay  numeric.result
1  Cn1nc(-c2cc(C=O)c(Cl)cc2F)c(Cl)c1C(F)(F)F      Downy Brome              20
2  CC(=NOCC(N)=O)c1cc(-c2nn(C)c(C(F)(F)F)c2Cl)c(F)cc1Cl      Downy Brome               0
3  COC(=O)C=Cc1cc(-c2nn(C)c(C(F)(F)F)c2Cl)c(F)cc1Cl      Downy Brome             100
4  CCC(C)COC(=O)c1cc(-c2nn(C)c(C(F)(F)F)c2Cl)c(F)cc1Cl (stereo not shown)      Downy Brome             100
5  Cn1nc(-c2cc(S)c(Cl)cc2Cl)c(Cl)c1C(F)(F)F      Downy Brome              50
6  CC(C)CCOC(=O)c1cc(-c2nn(C)c(C(F)(F)F)c2Cl)c(F)cc1Cl      Downy Brome             100
7  CCOC(=O)C(C)Oc1cc(-c2nn(C)c(C(F)(F)F)c2Cl)c(F)cc1Cl (stereo not shown)      Downy Brome              90
8  C#CCOc1cc(-c2nn(C)c(C(F)(F)F)c2Cl)c(F)cc1Br      Downy Brome             100
9  COc1cc(-c2nn(C)c(C(F)(F)F)c2Cl)c(F)cc1Br      Downy Brome             100

Then this compound:
Exam item: Supply reported inhibition at 1120 g/ha belonging to this compound: Cn1nc(-c2cc(OCc3ccc(Cl)s3)c(Cl)cc2F)c(Cl)c1C(F)(F)F
Marked response: 100

====

Test system: Indian Mustard
Measurement Description: Pre-emergence herbicide test
Format: in vivo
Measurement Parameters: Brassica juncea, 1.12 kg/ha, read-out: % plant inhibition (Inmu)
Assay Readout: inhibition at 1120 g/ha (%)
Express your answer in %, writing the number without its unit.

> print(dat)
                                   compound  target.of.assay  numeric.result
1  COC(=O)Cc1cc(-c2nn(C)c(C(F)(F)F)c2Cl)c(F)cc1Cl   Indian Mustard              80
2  Cn1nc(-c2cc(OCc3ccc(Cl)s3)c(Cl)cc2F)c(Cl)c1C(F)(F)F   Indian Mustard              10
3  CCOC(=O)CON=C(C)c1cc(-c2nn(C)c(C(F)(F)F)c2Cl)c(F)cc1Cl   Indian Mustard              80
4  Cn1nc(-c2cc([N+](=O)[O-])c(Cl)cc2F)c(Cl)c1C(F)F   Indian Mustard              20
5  Cn1nc(-c2cc(/C=C/C(=O)O)c(Cl)cc2F)c(Cl)c1C(F)(F)F   Indian Mustard             100

Exam item: Please report inhibition at 1120 g/ha with Indian Mustard for item Cn1nc(-c2cc(C(=O)OC3CCCCC3)c(Cl)cc2F)c(Cl)c1C(F)(F)F .
Marked response: 60

Exam item: Please report inhibition at 1120 g/ha with Indian Mustard for item COC(=O)C=Cc1cc(-c2nn(C)c(C(F)(F)F)c2Cl)c(F)cc1Cl .
Marked response: 70

Exam item: Please report inhibition at 1120 g/ha with Indian Mustard for item CCC(C)COC(=O)c1cc(-c2nn(C)c(C(F)(F)F)c2Cl)c(F)cc1Cl (stereo not drawn) .
Marked response: 70

====

System: Yellow nutsedge
Measurement Description: Pre-emergence herbicide test
Assay type: in vivo
Measurement Parameters: Cyperus, 11.21 kg/ha, read-out: % plant inhibition (Yens)
Assign t to entries whose inhibition at 11210 g/ha meets or exceeds 10%; assign f to the rest.

> print(dat)
                                   compound  target.of.assay  class
1  Cc1cc(-c2c(Cl)c(C(F)(F)F)nn2C)c(F)cc1Cl [Compound 63]  Yellow nutsedge      f
2  CNC(=O)Cc1cc(-c2nn(C)c(C(F)(F)F)c2Cl)c(F)cc1Cl [Compound 114]  Yellow nutsedge      t
3  Cn1nc(-c2ccc(Cl)cc2Cl)c(Cl)c1C(F)(F)F [Compound 85]  Yellow nutsedge      f
4  Cn1nc(C(F)(F)Cl)c(Cl)c1-c1ccc(Cl)cc1 [Compound 67]  Yellow nutsedge      f
5  Cn1nc(-c2cc(C(Br)Br)c(Cl)cc2F)c(Cl)c1C(F)(F)F [Compound 132]  Yellow nutsedge      t

Exam item: Hi, just wondering whether COc1cc(-c2c(Cl)c(C(F)(F)F)nn2C)c(F)cc1N [Compound 73] shows inhibition at 11210 g/ha of 10% or higher.
Marked response: f

Exam item: Hi, just wondering whether Cn1nc(C(F)F)c(Cl)c1-c1cc(F)ccc1F [Compound 62] shows inhibition at 11210 g/ha of 10% or higher.
Marked response: f

====

The following compounds are shown together with reported inhibition at 11210 g/ha values.
System: Indian Mustard
Measurement Description: Pre-emergence herbicide test
Type: in vivo
Measurement Parameters: Brassica juncea, 11.21 kg/ha, read-out: % plant inhibition (Inmu)
Answer with the number, then the unit.

> print(dat)
                                 smiles.str  target.of.assay             assay.readout  result
1  Cn1nc(-c2cc(CC(=O)O)c(Cl)cc2F)c(Cl)c1C(F)(F)F   Indian Mustard  inhibition at 11210 g/ha    100%
2  Cn1nc(C(F)(F)F)c(Cl)c1-c1cc([N+](=O)[O-])c(F)cc1F   Indian Mustard  inhibition at 11210 g/ha     30%
3  Cn1nc(-c2cc(CC(=O)NCCCl)c(Cl)cc2F)c(Cl)c1C(F)(F)F   Indian Mustard  inhibition at 11210 g/ha     80%
4   COc1cc(F)c(-c2c(Cl)c(C(F)(F)F)nn2C)cc1F   Indian Mustard  inhibition at 11210 g/ha     30%

Then this compound:
Exam item: Supply reported inhibition at 11210 g/ha belonging to this compound: Cn1nc(-c2ccc(Cl)cc2Cl)c(Cl)c1C(F)(F)F
Marked response: 100%

====

System: Morningglory
Measurement Description: Pre-emergence herbicide test
Type: in vivo
Measurement Parameters: Ipomoea, 1.12 kg/ha, read-out: % plant inhibition (Mogl)
Assign T to entries whose inhibition at 1120 g/ha meets or exceeds 90%; assign F to the rest.

Take a look at these entries with their results.
> print(dat)
                                   compound  class
1  Cn1nc(-c2cc(C3OCCS3)c(Cl)cc2F)c(Cl)c1C(F)(F)F (stereo not drawn)      T
2  COC(=O)Cc1cc(-c2nn(C)c(C(F)(F)F)c2Cl)c(F)cc1Cl      F
3  C#CCN1C(=O)COc2cc(F)c(-c3nn(C)c(C(F)(F)F)c3Cl)cc21      T
4  CCC(C)COC(=O)c1cc(-c2nn(C)c(C(F)(F)F)c2Cl)c(F)cc1Cl (stereo not drawn)      F
5  Cn1nc(-c2cc(OCc3ccccn3)c(Cl)cc2F)c(Cl)c1C(F)(F)F      F

Exam item: Hi, just wondering whether CC(=NOCC(N)=O)c1cc(-c2nn(C)c(C(F)(F)F)c2Cl)c(F)cc1Cl shows inhibition at 1120 g/ha of 90% or higher.
Marked response: F

Exam item: Hi, just wondering whether Cn1nc(-c2cc(N)c(Cl)cc2F)c(Cl)c1C(F)F shows inhibition at 1120 g/ha of 90% or higher.
Marked response: F

====

The following compounds are shown together with reported inhibition at 1120 g/ha values.
Test system: Indian Mustard
Measurement Description: Pre-emergence herbicide test
Assay type: in vivo
Measurement Parameters: Brassica juncea, 1.12 kg/ha, read-out: % plant inhibition (Inmu)
Express your answer in %, writing the number without its unit.

Exam item: Supply reported inhibition at 1120 g/ha belonging to this compound: Cn1nc(-c2cc(O)c(Cl)cc2F)c(Cl)c1C(F)(F)Cl
Marked response: 90

Exam item: Supply reported inhibition at 1120 g/ha belonging to this compound: Cn1nc(-c2cc(OCC(=O)O)c(Cl)cc2F)c(Cl)c1C(F)(F)F
Marked response: 40

Exam item: Supply reported inhibition at 1120 g/ha belonging to this compound: CCS(=O)(=O)Nc1cc(-c2nn(C)c(C(F)(F)F)c2Cl)c(Cl)cc1Cl
Marked response: 20

Exam item: Supply reported inhibition at 1120 g/ha belonging to this compound: CC(C)OC(=O)COc1cc(-c2nn(C)c(C(F)(F)Cl)c2Cl)c(F)cc1Cl
Marked response: 10

Exam item: Supply reported inhibition at 1120 g/ha belonging to this compound: CC(C)COC(=O)c1cc(-c2nn(C)c(C(F)(F)F)c2Cl)c(F)cc1Cl
Marked response: 90

Exam item: Supply reported inhibition at 1120 g/ha belonging to this compound: CC(C)OC(=O)c1cc(-c2nn(C)c(C(F)(F)F)c2Cl)c(F)cc1Cl
Marked response: 100

Exam item: Supply reported inhibition at 1120 g/ha belonging to this compound: CCC(C)COC(=O)COc1cc(-c2nn(C)c(C(F)(F)F)c2Cl)c(F)cc1Cl (centres unmarked)
Marked response: 60

Exam item: Supply reported inhibition at 1120 g/ha belonging to this compound: Cn1nc(-c2cc(CCl)c(Cl)cc2F)c(Cl)c1C(F)(F)F
Marked response: 90
